All values here come from patent US10858362B2.

Biological target: PDE1A (Homo sapiens (Human))
pIC50: −log10 of the molar value.
assayReadout: pIC50

Some compounds with known pIC50 results, for comparison:
Cc1cn2c(C3CCOCC3)ncc2c(=O)n1CCC(C)C : 5.97
COc1ccc(Cn2c(C)cn3c(N4CCCOCC4)ncc3c2=O)cc1 : 6.69
Cc1cn2c(C3CC3(F)F)ncc2c(=O)n1Cc1cccc(F)c1 (stereo not drawn) : 6.48
Cc1cn2c(C3CCOCC3)ncc2c(=O)n1C[C@H]1CC[C@@H](C)CC1 [66, cis] : 8.15
Cc1cn2c([C@@H]3CCO[C@@H]3C)ncc2c(=O)n1Cc1cccc(F)c1 (single isomer, unassigned; isomer 1) [36, isomer 1] : 6.82

I. Cc1cccc(Cn2c(C)cn3c(C4CCOCC4)ncc3c2=O)c1
II. COCC(C)(C)c1ncc2c(=O)n(Cc3ccc(OC)cc3)c(C)cn12
pIC50 comparison. Which is larger, I or II ? Use the label to indicate which entry you chose.
I

----------
Assay read-out IC50; system under study: PDE1A (Homo sapiens (Human), UniProt P54750).
Sequence (P54750 whole entry): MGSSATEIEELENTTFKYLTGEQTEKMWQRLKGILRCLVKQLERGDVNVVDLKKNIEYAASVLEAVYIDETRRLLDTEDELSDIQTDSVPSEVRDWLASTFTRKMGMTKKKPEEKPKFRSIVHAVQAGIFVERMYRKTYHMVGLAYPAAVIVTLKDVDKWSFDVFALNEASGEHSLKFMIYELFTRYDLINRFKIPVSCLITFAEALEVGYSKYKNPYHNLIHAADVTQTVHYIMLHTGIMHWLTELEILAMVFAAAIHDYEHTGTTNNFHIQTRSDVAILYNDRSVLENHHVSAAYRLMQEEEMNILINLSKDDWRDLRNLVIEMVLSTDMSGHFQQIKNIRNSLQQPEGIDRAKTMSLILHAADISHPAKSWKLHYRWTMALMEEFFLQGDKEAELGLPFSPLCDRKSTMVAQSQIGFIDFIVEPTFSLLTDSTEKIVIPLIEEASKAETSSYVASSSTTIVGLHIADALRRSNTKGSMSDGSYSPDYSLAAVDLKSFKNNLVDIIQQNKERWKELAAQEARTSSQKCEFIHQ
assayReadout: IC50 (nM)

Cc1cn2c([C@H]3C[C@@H]3C)ncc2c(=O)n1Cc1cccc(F)c1 (single isomer, unassigned; isomer 3) [35, isomer 3] : 82
Cc1cn2c([C@H]3CCOC3)ncc2c(=O)n1Cc1cccc(F)c1 (single isomer, unassigned; isomer 2) [31, isomer 2] : 347
Cc1cn2c([C@H]3CCO[C@@H]3C)ncc2c(=O)n1Cc1cccc(F)c1 (single isomer, unassigned; isomer 2) [36, isomer 2] : 282
COc1ccc(Cn2c(C)cn3c(C(C)C)ncc3c2=O)cc1 : 13
Cc1cn2c([C@]3(C)CCOC3)ncc2c(=O)n1Cc1cccc(F)c1 (single isomer, unassigned; isomer 1) [32, isomer 1] : 257
Cc1nc(Cn2c(C)cn3c(C4CCOCC4)ncc3c2=O)cs1 : 1690

1. Cc1cn2c(C3CCOCC3)ncc2c(=O)n1Cc1cccc(F)c1
2. Cc1cn2c(C3(F)CCOCC3)ncc2c(=O)n1Cc1cccc(F)c1
3. O=c1c2cnc(C3CCOCC3)n2cc(Cc2ccccc2)n1CC1CCCCC1
4. Cc1cn2c(C3(C)CCOCC3)ncc2c(=O)n1Cc1cccc(F)c1
5. Cc1cn2c(C3CCOCC3)ncc2c(=O)n1Cc1ccc(OC(F)F)cc1
Task field, ranking: reported IC50, descending order. Answer by listing the labels in the order asked for.
2, 4, 1, 5, 3
(2: 493 nM, 4: 234 nM, 1: 108 nM, 5: 73 nM, 3: 8 nM)

----------
Molecular target: PDE1A (Homo sapiens (Human))
assayReadout: IC50 (nM)

// below: answered compounds
Cc1cn2c(C3CCOCC3)ncc2c(=O)n1Cc1ccc(F)cc1 : 38
Cc1cn2c(C3CCOCC3)ncc2c(=O)n1C[C@H]1CC[C@H](C)CC1 [66, trans] : 35
COc1ccc(Cn2c(C)cn3c(C4CCOCC4)ncc3c2=O)cc1 : 14
Cc1cn2c([C@@H]3C[C@H]3C)ncc2c(=O)n1Cc1cccc(F)c1 (single isomer, unassigned; isomer 2) [35, isomer 2] : 364
COc1ccc(Cn2c(C)cn3c(C4(C)CCN(C)CC4)ncc3c2=O)cc1 : 1920
CCn1c(C)cn2c(C3CCOCC3)ncc2c1=O : 2330

a. COc1ccc(Cn2c(C)cn3c(C4CCNC(=O)CC4)ncc3c2=O)cc1 (centres unmarked)
b. COc1ccc(Cn2c(C)cn3c([C@H](C)c4ccccc4)ncc3c2=O)cc1
c. Cc1cn2c(N3CCC4OCCC43)ncc2c(=O)n1Cc1cccc(F)c1 (single isomer, unassigned; isomer 1) [99, isomer 1]
d. CCCn1c(C)cn2c(C3CCOCC3)ncc2c1=O
Order the records by IC50, with each subsequent value no larger than the one before. I'd appreciate it if you listed the labels in the requested order.
d, a, c, b
(d: 810 nM, a: 484 nM, c: 241 nM, b: 90 nM)

I. Cc1cn2c([C@H]3CCCOC3)ncc2c(=O)n1Cc1cccc(F)c1 (single isomer, unassigned; isomer 2) [100, isomer 2]
II. Cc1cn2c([C@H]3CCO[C@H]3C)ncc2c(=O)n1Cc1cccc(F)c1 (single isomer, unassigned; isomer 4) [36, isomer 4]
Looking at I and II , which one comes out lower in IC50 terms? Refer to your chosen entry by its label in the reply.
II

a. COc1ccc(Cn2c(C)cn3c([C@@]4(C)C[C@@H]5CC[C@H]4O5)ncc3c2=O)cc1
b. Cc1ccc(Cn2c(C)cn3c(C4CCOCC4)ncc3c2=O)cc1
Determine, for a and b , which has the greater value of IC50. Response format: the label of the selected entry.
b

----------
Biological target: PDE1B (Homo sapiens (Human))
Test: PDE1 inhibition assay, PDE1B
Type: biochemical
Conditions: read-out: PDE1B, % inhibition (at 1 μM)
assayReadout: inhibition at 1 µM (%)

CCc1ccccc1Cn1c(C)cn2c(C3CCOCC3)ncc2c1=O [Example 49] : 60
Cc1cn2c(C3CCOCC3)ncc2c(=O)n1Cc1cccc(C#N)c1 [Example 45] : 54
COc1cc(Cn2c(C)cn3c(C4CCOCC4)ncc3c2=O)ccc1Cl [Example 48] : 54
Cc1cn2c(C3CCOCC3)ncc2c(=O)n1Cc1ccc(C#N)cc1 [Example 46] : 58

----------
Target: PDE9 (Homo sapiens (Human), UniProt O76083)
Sequence (O76083 whole entry): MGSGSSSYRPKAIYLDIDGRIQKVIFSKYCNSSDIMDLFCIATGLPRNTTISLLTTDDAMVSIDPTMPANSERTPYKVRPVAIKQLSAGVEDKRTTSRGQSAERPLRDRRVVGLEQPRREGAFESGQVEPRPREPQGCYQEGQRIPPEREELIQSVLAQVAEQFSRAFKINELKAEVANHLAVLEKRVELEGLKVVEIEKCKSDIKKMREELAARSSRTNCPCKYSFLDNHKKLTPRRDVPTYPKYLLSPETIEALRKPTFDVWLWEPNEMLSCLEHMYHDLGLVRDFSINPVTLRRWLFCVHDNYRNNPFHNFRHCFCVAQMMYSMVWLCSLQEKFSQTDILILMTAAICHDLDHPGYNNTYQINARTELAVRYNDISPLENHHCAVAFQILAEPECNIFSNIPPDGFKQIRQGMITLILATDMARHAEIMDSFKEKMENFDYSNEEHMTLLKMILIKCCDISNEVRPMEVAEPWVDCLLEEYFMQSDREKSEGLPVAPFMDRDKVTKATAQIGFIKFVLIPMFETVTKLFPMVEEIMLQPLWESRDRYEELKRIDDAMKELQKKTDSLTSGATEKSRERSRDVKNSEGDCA
Assay: PDE9 inhibition assay
Type: biochemical
Details: at 10 microM
assayReadout: % inhibition of PDE9 at 10 microM (%)

A. Cc1cn2c([C@H]3CCCCO3)ncc2c(=O)n1Cc1cccc(F)c1 (single isomer, unassigned; isomer 2) [30, isomer 2]
B. Cc1cn2c(N3CCC4OCCC43)ncc2c(=O)n1Cc1cccc(F)c1 (single isomer, unassigned; isomer 1) [99, isomer 1]
C. Cc1cn2c([C@@H]3CCO[C@@H]3C)ncc2c(=O)n1Cc1cccc(F)c1 (single isomer, unassigned; isomer 1) [36, isomer 1]
Rank the items above by % inhibition of PDE9 at 10 microM, largest value first. Enter labels, ranked according to the request.
A, B, C

----------
Target: UniProt O76083
Assay: PDE9 inhibition assay
Type: biochemical
Conditions: at 10 microM
assayReadout: % inhibition of PDE9 at 10 microM (%)

Worked examples follow.
Cc1cn2c([C@H]3CCO[C@H]3C)ncc2c(=O)n1Cc1cccc(F)c1 (single isomer, unassigned; isomer 4) [36, isomer 4] : 11
Cc1cn2c([C@H]3CCCOC3)ncc2c(=O)n1Cc1cccc(F)c1 (single isomer, unassigned; isomer 2) [100, isomer 2] : −21
Cc1cn2c(C3CCOCC3)ncc2c(=O)n1C[C@H]1CC[C@@H](C)CC1 [66, cis] : −3
Cc1cn2c(C3C[C@H]3F)ncc2c(=O)n1Cc1cccc(F)c1 (single isomer, unassigned; isomer 1) [38, isomer 1] : −1
Cc1cn2c(C3(C)CCOC3)ncc2c(=O)n1Cc1cccc(F)c1 (single isomer, unassigned; isomer 2) [32, isomer 2] : 16

A. Cc1cn2c([C@H]3C[C@@H]3C)ncc2c(=O)n1Cc1cccc(F)c1 (single isomer, unassigned; isomer 3) [35, isomer 3]
B. Cc1cn2c(C3C[C@@H]3F)ncc2c(=O)n1Cc1cccc(F)c1 (single isomer, unassigned; isomer 1) [37, isomer 1]
C. Cc1cn2c(C3C[C@@H]3F)ncc2c(=O)n1Cc1cccc(F)c1 (single isomer, unassigned; isomer 2) [37, isomer 2]
rank_up(items): orders items by reported % inhibition of PDE9 at 10 microM in ascending numerical order. List the labels in the requested order.
B, A, C

a. Cc1cn2c([C@H]3CCOC3)ncc2c(=O)n1Cc1cccc(F)c1 (single isomer, unassigned; isomer 2) [31, isomer 2]
b. COc1ccc(Cn2c(C)cn3c([C@@H]4CCO[C@@H]4C)ncc3c2=O)cc1 (single isomer, unassigned; isomer 1) [55, isomer 1]
Returns the identifier with the smallest measured % inhibition of PDE9 at 10 microM among a and b . # respond with the chosen item's label
a
(a: 5%, b: 18%)

I. Cc1cn2c([C@@H]3C[C@H]3C)ncc2c(=O)n1Cc1cccc(F)c1 (single isomer, unassigned; isomer 2) [35, isomer 2]
II. COc1ccc(Cn2c(C)cn3c([C@@H]4CCO[C@H]4C)ncc3c2=O)cc1 (single isomer, unassigned; isomer 2) [55, isomer 2]
III. Cc1cn2c([C@@H]3CCOC3)ncc2c(=O)n1Cc1cccc(F)c1 (single isomer, unassigned; isomer 1) [31, isomer 1]
IV. Cc1cn2c(C3CCOCC3)ncc2c(=O)n1C[C@H]1CC[C@H](C)CC1 [66, trans]
Sort ascending by % inhibition of PDE9 at 10 microM. Your reply should list the labels following the order given in the request.
II, IV, III, I

----------
As an illustration, consider measured pIC50 for molecules on PDE1B (Homo sapiens (Human), UniProt Q01064).
Sequence (Q01064 whole entry): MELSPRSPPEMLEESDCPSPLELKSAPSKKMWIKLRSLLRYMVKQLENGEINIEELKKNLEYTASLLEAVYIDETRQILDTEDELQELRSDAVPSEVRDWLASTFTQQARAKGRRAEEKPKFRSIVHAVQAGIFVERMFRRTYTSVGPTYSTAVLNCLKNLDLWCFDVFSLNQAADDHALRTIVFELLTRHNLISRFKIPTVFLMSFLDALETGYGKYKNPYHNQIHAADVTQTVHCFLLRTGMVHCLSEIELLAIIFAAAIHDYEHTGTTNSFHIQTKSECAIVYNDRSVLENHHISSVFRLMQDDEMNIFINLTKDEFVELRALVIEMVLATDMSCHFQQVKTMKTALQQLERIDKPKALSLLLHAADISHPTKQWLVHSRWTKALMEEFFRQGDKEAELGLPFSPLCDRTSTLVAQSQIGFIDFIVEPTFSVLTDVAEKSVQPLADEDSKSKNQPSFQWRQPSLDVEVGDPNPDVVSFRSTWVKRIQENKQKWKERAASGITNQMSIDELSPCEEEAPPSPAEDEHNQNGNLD
pIC50: −log10 of the molar value.
assayReadout: pIC50

Below, each entry is followed by its recorded pIC50 result.
COc1ccc(Cn2c(C)cn3c(C(C)(C)O)ncc3c2=O)cc1 [Example 86] : 6.93
O=c1c2cnc(C3CCOCC3)n2ccn1CC1CCCCCC1 [Example 12] : 7.68

I. Cc1cn2c(C3(C)CCOC3)ncc2c(=O)n1Cc1cccc(F)c1 (single isomer, unassigned; isomer 2) [32, isomer 2]
II. COc1ccc(Cn2c(C)cn3c([C@@]4(C)C[C@@H]5CC[C@H]4O5)ncc3c2=O)cc1 [Example 70]
Between the two listed entries I and II , which has its pIC50 at the higher number? Refer to your chosen item by its label in the answer.
II
(II: 7.77, I: 6.77)

I. COc1ccc(Cn2c(C)cn3c([C@H]4CCO[C@H]4C)ncc3c2=O)cc1 (single isomer, unassigned; isomer 4) [55, isomer 4]
II. COc1ccc(Cn2c(C)cn3c(C4CC(C)OC(C)C4)ncc3c2=O)cc1 (stereo not shown) [Example 84]
Among I and II , which shows a numerically higher pIC50 result? Answer with the label corresponding to your selection.
II
(II: 6.99, I: 6.68)

A. Cc1nc(Cn2c(C)cn3c(C4CCOCC4)ncc3c2=O)cs1 [Example 78]
B. Cc1cn2c(C3CCOCC3)ncc2c(=O)n1Cc1ccsc1 [Example 79]
# query: argmin of pIC50 over A and B Answer by quoting the chosen item's label.
A
